# System: SupB15
# assay.protocol: Cytotoxicity, Ph+ ALL model cell line
# Assay type: cell-based
# test.parameters: Homo sapiens, SUP-B15, read-out: IC50 (toxicity)
observed.property: IC50

**Q:** Quote IC50 reported for CS(=O)(=O)O.Cc1ccc(C(=O)Nc2ccc(CN3CCN(C)CC3)c(C(F)(F)F)c2)cc1C#Cc1nnc2ccccn12 [methanesulfonic acid salt] please.
**A:** 50 nM

###

# assay.protocol: Solubility of the free base in various solvents
# Type: physicochemical
# test.parameters: organic solvent or mixture, thermodynamic from solid; Dimethylformamide; 4.7 mg in 0.1 mL; RT
observed.property: solubility

**Q:** Return reported solubility. Input molecule: Cc1ccc(C(=O)Nc2ccc(CN3CCN(C)CC3)c(C(F)(F)F)c2)cc1C#Cc1nnc2ccccn12 [free base]
**A:** > 800 µg/mL
